Each recorded value in this set is attributed to patent US20250186614A1.

# Assay Comment: Example 4: dose response of FKBP constructs 160-255, Ec50, Ec90 and fold change (raw and normalized to mCherry)
# Assay type: cell-based
# Assay Setup: FKBP constructs 160-255; not normalized; read-out: EC90
Catalogue of EC90 values
Quantity: EC90 (nM)

| Molecule | Quantity | Result Units | Recorded Value |
| --- | --- | --- | --- |
| FKBP-212 (protein, Description of sequence: Construct Name: FKBP-212; Mutation(s): Q72R Q84E A117W V85R DRD M54A H53L) HCPIKSRKGDVLLAHYTGKLEDGTEFDSSLPRNQPFVFSLGTGERIKGWDQGLLGMCEGEKRKLVIPSELGYGERGWPPKIPGGATLVFEVELLKIER | EC90 | nM | 299 |
| FKBP-200: FKBP13 DRD-AcGFP construct of Table 10 (protein, Description of sequence: Construct Name: FKBP-200; Mutation(s): Q72R Q84E A117W V85R DRD D62S) HCPIKSRKGDVLHMHYTGKLESGTEFDSSLPRNQPFVFSLGTGERIKGWDQGLLGMCEGEKRKLVIPSELGYGERGWPPKIPGGATLVFEVELLKIER | EC90 | nM | 160 |
